Target: T1, HLA-A*0201 molecule expressed on human T2 cells (human)
T1 construct: surface HLA-A2 detected with anti-HLA-A2-PE (clone REA517); also called HLA-A2
Test: T2 cell HLA-A*0201 binding assay, anti-HLA-A2-PE flow cytometry
readout: in vitro binding affinity (relative affinity, normalized against HIV-pol)

1. SLPDRILDA (also called ENT204-H) [CDC20-H1] = 6.3 ratio to HIV pol reference peptide
2. ALYDVRTIL (also called ENT168-H) [UBE2C-H1] = 8.8 ratio to HIV pol reference peptide
3. YLYDVRTAL (also called ENT168_B2) [UBE2C-B11] = 0.7 ratio to HIV pol reference peptide
4. AINPELLQL (also called ENT207-H) [KIF2C-H1] = 31.1 ratio to HIV pol reference peptide
5. SLPDRILTV (also called ENT204_B1; ENT_204-B1) [CDC20-B1] = 0.6 ratio to HIV pol reference peptide
6. LVIGIILAV (also called ENT176-H) [CDH17-H1] = 14.9 ratio to HIV pol reference peptide
7. AVIGIVAAV (also called ENT190_B1) [OR51E2-B1] = 0.8 ratio to HIV pol reference peptide
8. FLYDVRTYL (also called ENT168_B1; ENT_168-B1) [UBE2C-B1] = 3.1 ratio to HIV pol reference peptide
9. QMNPELLTL (also called ENT207_B2) [KIF2C-B11] = 3.9 ratio to HIV pol reference peptide
10. IVWSDVTYV (also called ENT187_B1) [MMP11-B1] = 0.07 ratio to HIV pol reference peptide
11. YLSGANLFV (also called CEACAM-B1; ENT188_B1) [CEACAM5-B1] = 0.5 ratio to HIV pol reference peptide
12. SLLSIQSYV (also called ENT172_B1) [UBE2C-B2] = 0.2 ratio to HIV pol reference peptide
13. ALIFGQLLL (also called ENT205_B1; ENT_205-B1) [TOP2A-B2] = 2.9 ratio to HIV pol reference peptide
14. SLDQKLFQL [ANKRD30A-H3] = 0.4 ratio to HIV pol reference peptide
15. KVWSDVTPL [MMP11-H1] = 0.6 ratio to HIV pol reference peptide
16. ILLSIQSLL [UBE2C-H2] = 3.5 ratio to HIV pol reference peptide
